Taken from PubChem BioAssay (NCI).

Consider the following compounds; for each one, report its growth inhibition.
- Assay protocol: NCI Yeast Anticancer Drug Screen. Data for the cln2 rad14 strain (AID 165);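 also: 0% = growth equal to vehicle treated cultures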
- Protocol conditions: S. cerevisiae cln2 rad14 strain, at 5.0 µM (retest, dose inferred, filed as 0.5), hits give high values
Compounds without any hit were thinned out: in the full panel of roughly 79,000, 15% have a hit.
One number for each entry, in %.

Please report growth inhibition for every entry that follows.
1. O/N=C1/C(=C/c2ccc3c(c2)OCO3)CCCC1C(NO)c1ccc2c(c1)OCO2 (stereo unspecified)
2. N#CSCC(=O)c1ccccc1

# output
1: -5; 2: 87

Please report growth inhibition for every entry that follows.
1. CC(=O)Oc1c2ccccc2c(C)c2c1ccc1ccccc12
2. S=C(N/N=C/c1ccco1)NC12CC3CC(CC(C3)C1)C2
3. O=C1c2ccc(O)c(O)c2C(=O)c2cccc(O)c21
4. Cc1cc(C)c(Cc2cc(C(C)(C)C)cc(C)c2O)cc1Cc1cc(C(C)(C)C)cc(C)c1O
5. Cc1ccc(C(=O)N2CCN(C(=O)c3ccc(C)cc3)c3ccccc32)cc1
6. C/C(=C/C(=O)N1c2ccccc2CC1c1c[nH]c2ccccc12)C(=O)O (stereo unspecified)
7. COC1CCCCC1C(=O)C(C#N)C1CCCCC1C1CCCCC1 (stereo unspecified)

# output
1. 49
2. 51
3. 34
4. -16
5. -7
6. -79
7. -5

Please report growth inhibition for every entry that follows.
1. CCCCCCCCC[n+]1cccc(C(=O)c2ccccc2)c1
2. O=C1COC(=O)/C1=C\C=C\c1ccccc1

# output
1: -4; 2: 1
